Entries with their measured IC50, system FAP-expressing human WI-38 fibroblasts (Homo sapiens, UniProt Q12884):

What is its IC50 for FAP-expressing human WI-38 fibroblasts (Homo sapiens, UniProt Q12884)? Entry: CCCCCC(=O)N[C@H]1CSCc2cc(CSCCNC(=O)COc3ccc4nc3CN(CC(=O)O)CCN(CC(=O)O)CCN(CC(=O)O)C4)cc(c2)CSCC(C(=O)O)NC(=O)[C@H](Cc2ccccc2)NC(=O)[C@H](CCC(N)=O)NC(=O)[C@H]([C@@H](C)O)NC(=O)[C@@H]2CCCN2C(=O)[C@@H]2CCCN2C1=O (some centres unmarked) < 10 nM

Notebook: pull reported IC50 for FAP-expressing human WI-38 fibroblasts (Homo sapiens, UniProt Q12884), entry CCCCNC(=O)N[C@H]1CSCc2cc(CSCCNC(=O)CN3CCN(CC(=O)O)CCN(CC(=O)O)CCN(CC(=O)O)CC3)cc(c2)CSC[C@@H](C(N)=O)NC(=O)[C@H](Cc2ccccc2)NC(=O)[C@H](CCC(N)=O)NC(=O)[C@H]([C@@H](C)O)NC(=O)[C@@H]2CCCN2C(=O)[C@@H]2CCCN2C1=O < 10 nM

----------
assay_protocol: Pharmacokinetic study in mice (plasma, NCA)
test_parameters: mouse, intravenous, 40 nmol/kg, Vss, mouse plasma, 40 nmol/kg
observation_type: Vd (L/kg)
// units = L/kg; emit number, no label

Look at this compound and give its reported Vd. CCCCCC(=O)N[C@H]1CSCc2cc(CSCCNC(=O)CN3CCN(CC(=O)O)CCN(CC(=O)O)CCN(CC(=O)O)CC3)cc(c2)CSC[C@@H](C(=O)O)NC(=O)[C@H](Cc2ccccc2)NC(=O)[C@H](CCC(N)=O)NC(=O)[C@H]([C@@H](C)O)NC(=O)[C@@H]2CCCN2C(=O)[C@@H]2CCCN2C1=O [3BP-3623] 0.31

----------
measured_target: Human recombinant FAP (Homo sapiens)
assay_protocol: FRET-based FAP protease activity assay
Format: biochemical
Design: purchased R&D systems 3715-SE
test_parameters: pIC50 Category (activity), Recombinant human FAP
pIC50: −log10 of the molar value. Numbered stars: 1 amine (or outer) side, 2 acyl side, 3 side chain; on linkers, the order of the positions; unused ones are H or OH. Bridge positions count the residues as written; N and C are the ends. Square brackets hold non-standard residues; d marks the D form. Peptide text beside a SMILES is read from it. * marks the point of attachment. ξ: configuration not given here. X11 = O=C(O)CN1CCN(CC(=O)O)CCN(C(CCC(=O)NCCSCc2cc(C[*:1])cc(C[*:2])c2)C(=O)O)CC1; mXylylene = c1cc(C[*:1])cc(C[*:2])c1; PEG6 = NCCOCCOCCOCCOCCOCCOCCC(=O)O; X29 = O=C(CN1CCN([*:1])CC1)[*:2]; Nle = CCCC[C@H](N)C(=O)O; X2 = NCCNCC(CNCCN)C(=O)*; Hexanoyl = CCCCCC(=O)*; ξC = NC(CS)C(=O)O
observation_type: pIC50

Illustrative cases are given below, each with its answer.
CCCCCC(=O)N[C@H]1CSCc2cc(CSCCNC(=O)CN3CCN(CC(=O)O)CCN(CC(N)=O)CCN(CC(=O)O)CC3)cc(c2)CSCC(C(=O)O)NC(=O)[C@H](Cc2ccccc2)NC(=O)[C@H](CCC(N)=O)NC(=O)[C@H]([C@@H](C)O)NC(=O)[C@@H]2CCCN2C(=O)[C@@H]2CCCN2C1=O (stereo partly drawn) | > 8.00
CCCCCC(=O)N[C@H]1CSCc2cc(CSCCNC(=O)CCP(=O)(O)CN3CCN(CP(=O)(O)CO)CCN(CP(=O)(O)CO)CC3)cc(c2)CSCC(C(N)=O)NC(=O)[C@H](Cc2ccccc2)NC(=O)[C@H](CCC(N)=O)NC(=O)[C@H]([C@@H](C)O)NC(=O)[C@@H]2CCCN2C(=O)[C@@H]2CCCN2C1=O (stereo partly drawn) | > 8.00
CCCC[C@H](NC(=O)CCOCCOCCOCCOCCOCCOCCNC(=O)CN1CCN(C(=O)C(CNCCN)CNCCN)CC1)C(=O)N[C@H]1CSCc2cccc(c2)CSC[C@@H](C(=O)O)NC(=O)[C@H](Cc2ccccc2)NC(=O)[C@H](CCC(=O)O)NC(=O)[C@H]([C@@H](C)O)NC(=O)[C@@H]2CCCN2C(=O)[C@@H]2CCCN2C1=O [3BP-4781] (X2-[X29][PEG6][Nle]CPPTEFC-OH; linker 4-10 via mXylylene) | 7.10 to 8.00
CCCCCC(=O)N[C@H]1CSCc2cc(CSCCNC(=O)CCC(C(=O)O)N3CCN(CC(=O)O)CCN(CC(=O)O)CC3)cc(c2)CSCC(C(=O)O)NC(=O)[C@H](Cc2ccccc2)NC(=O)[C@H](CCC(=O)O)NC(=O)[C@H]([C@@H](C)O)NC(=O)[C@@H]2CCCN2C(=O)[C@@H]2CCCN2C1=O (stereo partly drawn) [3BP-4695] (Hexanoyl-CPPTEF[ξC]-OH; linker 1-7 via X11) | 7.10 to 8.00
CCCC[C@H](NC(=O)CCC(=O)NCCCOCCOCCOCCCNC(=O)CN1CCN(CC(=O)O)CCN(CC(=O)O)CC1)C(=O)N[C@H]1CSCc2cccc(c2)CSCC(C(=O)O)NC(=O)[C@H](Cc2ccccc2)NC(=O)[C@H](CCC(N)=O)NC(=O)[C@H]([C@@H](C)O)NC(=O)[C@@H]2CCCN2C(=O)[C@@H]2CCCN2C1=O (stereo partly drawn) | 7.10 to 8.00

Kindly consider the entry below.
Consider the molecule shown here: CCCCNC(=O)N[C@H]1CSCc2cc(CSCCNC(=O)CCP(=O)(O)CN3CCN(CP(=O)(O)CO)CCN(CP(=O)(O)CO)CC3)cc(c2)CSCC(C(=O)O)NC(=O)[C@H](Cc2ccccc2)NC(=O)[C@H](CCC(N)=O)NC(=O)[C@H]([C@@H](C)O)NC(=O)[C@@H]2CCCN2C(=O)[C@@H]2CCCN2C1=O (stereo partly drawn) What is its recorded pIC50? > 8.00

----------
assay_protocol: in vivo
test_parameters: female, athymic nude, mouse, blood pool surrogate (BPS), iv, uptake BPS 1 h, ^68Ga-labeled; BPS (blood pool surrogate); PET/CT; 1 h post tracer injection
Numbered stars: 1 amine (or outer) side, 2 acyl side, 3 side chain; on linkers, the order of the positions; unused ones are H or OH. Bridge positions count the residues as written; N and C are the ends. Square brackets hold non-standard residues; d marks the D form. Peptide text beside a SMILES is read from it. * marks the point of attachment. ξ: configuration not given here. X7 = O=C(CCP(=O)(O)CN1CCN(CP(=O)(O)CO)CCN(CP(=O)(O)CO)CC1)NCCSCc1cc(C[*:1])cc(C[*:2])c1; X11 = O=C(O)CN1CCN(CC(=O)O)CCN(C(CCC(=O)NCCSCc2cc(C[*:1])cc(C[*:2])c2)C(=O)O)CC1; CO = O=C([*:1])[*:2]; ξC = NC(CS)C(=O)O; NHBu = CCCCN*
observation_type: tissue uptake at 1 h (%ID/g)
Answer format: numeric, %ID/g implied, no suffix.

Solved entries (count: 2):
CCCCNC(=O)N[C@H]1CSCc2cc(CSCCNC(=O)CCP(=O)(O)CN3CCN(CP(=O)(O)CO)CCN(CP(=O)(O)CO)CC3)cc(c2)CSCC(C(=O)O)NC(=O)[C@H](Cc2ccccc2)NC(=O)[C@H](CCC(=O)O)NC(=O)[C@H]([C@@H](C)O)NC(=O)[C@@H]2CCCN2C(=O)[C@@H]2CCCN2C1=O (stereo partly drawn) [3BP-4778] ({NHBu-CO}-CPPTEF[ξC]-OH; linker 1-7 via X7) | 0.77
CCCCNC(=O)N[C@H]1CSCc2cc(CSCCNC(=O)CCC(C(=O)O)N3CCN(CC(=O)O)CCN(CC(=O)O)CC3)cc(c2)CSCC(C(=O)O)NC(=O)[C@H](Cc2ccccc2)NC(=O)[C@H](CCC(=O)O)NC(=O)[C@H]([C@@H](C)O)NC(=O)[C@@H]2CCCN2C(=O)[C@@H]2CCCN2C1=O (stereo partly drawn) [3BP-4724] ({NHBu-CO}-CPPTEF[ξC]-OH; linker 1-7 via X11) | 1.04

Moving on to the next molecule.
I would be grateful if you could share the reported tissue uptake at 1 h for CCCCNC(=O)N[C@H]1CSCc2cc(CSCCNC(=O)CCP(=O)(O)CN3CCN(CP(=O)(O)CO)CCN(CP(=O)(O)CO)CC3)cc(c2)CSCC(C(=O)O)NC(=O)[C@H](Cc2ccccc2)NC(=O)[C@H](CCC(N)=O)NC(=O)[C@H]([C@@H](C)O)NC(=O)[C@@H]2CCCN2C(=O)[C@@H]2CCCN2C1=O (stereo partly drawn) [3BP-4768] . 0.78

----------
IC50 listing for selected molecules.
measured_target: FAP-expressing human WI-38 fibroblasts (Homo sapiens, UniProt Q12884)
Sequence (Q12884 whole entry): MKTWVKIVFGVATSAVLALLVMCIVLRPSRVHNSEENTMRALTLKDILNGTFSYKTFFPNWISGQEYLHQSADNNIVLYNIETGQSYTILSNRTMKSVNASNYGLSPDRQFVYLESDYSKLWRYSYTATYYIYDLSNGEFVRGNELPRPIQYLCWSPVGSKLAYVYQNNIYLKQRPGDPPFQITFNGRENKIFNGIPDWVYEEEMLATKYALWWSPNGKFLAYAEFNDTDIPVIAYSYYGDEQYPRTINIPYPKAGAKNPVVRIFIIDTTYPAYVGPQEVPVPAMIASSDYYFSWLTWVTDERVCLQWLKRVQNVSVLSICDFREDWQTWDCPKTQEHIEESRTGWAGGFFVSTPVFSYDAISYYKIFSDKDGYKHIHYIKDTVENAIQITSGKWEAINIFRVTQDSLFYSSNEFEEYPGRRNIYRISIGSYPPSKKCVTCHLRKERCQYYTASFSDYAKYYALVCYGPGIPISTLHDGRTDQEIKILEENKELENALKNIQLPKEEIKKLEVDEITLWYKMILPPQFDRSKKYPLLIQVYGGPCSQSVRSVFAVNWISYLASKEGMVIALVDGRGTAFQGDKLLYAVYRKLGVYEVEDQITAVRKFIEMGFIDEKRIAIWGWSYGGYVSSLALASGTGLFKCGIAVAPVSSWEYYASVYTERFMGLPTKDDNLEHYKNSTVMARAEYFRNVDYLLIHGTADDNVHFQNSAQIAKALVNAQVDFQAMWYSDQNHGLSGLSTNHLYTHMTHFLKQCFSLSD
Numbered stars: 1 amine (or outer) side, 2 acyl side, 3 side chain; on linkers, the order of the positions; unused ones are H or OH. Bridge positions count the residues as written; N and C are the ends. Square brackets hold non-standard residues; d marks the D form. Peptide text beside a SMILES is read from it. * marks the point of attachment. Phe(4-Cl) = N[C@@H](Cc1ccc(Cl)cc1)C(=O)O; mXylylene = c1cc(C[*:1])cc(C[*:2])c1; Hexanoyl = CCCCCC(=O)*

CC(=O)N[C@@H](CCO)C(=O)N[C@H]1CSCc2cccc(c2)CSC[C@@H](C(N)=O)NC(=O)[C@H](Cc2ccccc2)NC(=O)[C@H](CCC(N)=O)NC(=O)[C@H]([C@@H](C)O)NC(=O)[C@@H]2CCCN2C(=O)[C@@H]2CCCN2C1=O | > 1000 nM
CCCCCC(=O)N[C@H]1CSCc2cc(CSCCNC(=O)CCC(=O)NCCCOCCOCCOCCCNC(=O)CCC(=O)NCCCOCCOCCOCCCNC(=O)CCC(=O)NCCCOCCOCCOCCCNC(=O)CCC(=O)NCCCOCCOCCOCCCNC(=O)CCCC[C@@H]3SC[C@@H]4NC(=O)N[C@@H]43)cc(c2)CSC[C@@H](C(=O)O)NC(=O)[C@H](Cc2ccccc2)NC(=O)[C@H](CCC(N)=O)NC(=O)[C@H]([C@@H](C)O)NC(=O)[C@@H]2CCCN2C(=O)[C@@H]2CCCN2C1=O | 10 to 79.4 nM
CCCCCC(=O)N[C@H]1CSCc2cccc(c2)CSC[C@@H](C(N)=O)NC(=O)[C@H](Cc2ccc(Cl)cc2)NC(=O)[C@H](CCC(=O)O)NC(=O)[C@H]([C@@H](C)O)NC(=O)[C@@H]2CCCN2C(=O)[C@@H]2CCCN2C1=O [3BP-3369] (Hexanoyl-CPPTE[Phe(4-Cl)]C-NH2; linker 1-7 via mXylylene) | 100 to 794 nM

Turning to the following molecule.
What IC50 appears in the records for this molecule with FAP-expressing human WI-38 fibroblasts (Homo sapiens, UniProt Q12884)? CCCCCC(=O)N[C@H]1CSCc2cc(CSCCNC(=O)COCCOCCNC(=O)CCC(C(=O)O)N3CCN(CC(=O)O)CCN(CC(=O)O)CC3)cc(c2)CSCC(C(N)=O)NC(=O)[C@H](Cc2ccccc2)NC(=O)[C@H](CCC(N)=O)NC(=O)[C@H]([C@@H](C)O)NC(=O)[C@@H]2CCCN2C(=O)[C@@H]2CCCN2C1=O (stereo partly shown) < 10 nM

Data provenance: patent US20230212549A1
